Sourced from the supplement of paper PMC13380429

Tested on: A549-ACE2
assay name: drug-induced phospholipidosis relative to tamoxifen; higher = more phospholipidosis
particulars: 3.33333 µM; 48 h
measured metric: drug-induced phospholipidosis (%)
Lab book: enter the figure in %, no units written.

Example entries begin here.
COc1ccc(/C=C2\CCCN=C2c2cccnc2)c(OC)c1
2.13
CN1C2CCC1CC(OC(c1ccccc1)c1ccc(Cl)cc1)C2 (stereo unspecified)
51.9

Sample "CCCc1cc(C)[nH]c(=O)c1CNC(=O)c1cc(-c2ccc(N3CCN(C(C)C)CC3)nc2)cc2c1cnn2C(C)C" — what was its drug-induced phospholipidosis?
5.26

Sample CN1CCCC(CN2c3ccccc3Sc3ccccc32)C1 (stereo unspecified) — what was its drug-induced phospholipidosis?
20.8

Sample "C[C@@H](O[C@H]1OCCN(Cc2nn[nH]c2CN(C)C)[C@H]1c1ccc(F)cc1)c1cc(C(F)(F)F)cc(C(F)(F)F)c1" — what was its drug-induced phospholipidosis?
38.1

Sample "Nc1nc(NC[C@H]2CC[C@H](CNS(=O)(=O)c3cccc4ccccc34)CC2)nc2ccccc12" — what was its drug-induced phospholipidosis?
82

* * *

Test system: U2OS
assay name: cell viability relative to DMSO; higher = less toxic
particulars: 72 h; 1000 nM
Where a name gives a salt, the structure may show the parent alone.
measured metric: cell viability (%)
Lab book: enter the figure in %, no units written.

C[C@]12CC[C@@H](O)C[C@@H]1CC[C@@H]1[C@@H]2CC[C@]2(C)C(c3ccccc3)=CC[C@@H]12
103
O=c1n(CCCN2CCN(c3cccc(Cl)c3)CC2)nc2ccccn12
97.2
O=C1CCCN1CC#CCN1CCCC1 [oxotremorine-sesquifumarate]
100
CC[C@@H](c1cccc(O)c1)[C@@H](C)CN(C)C [Tapentadol (hydrochloride)]
93.9

Sample "C=CC(=O)Nc1cccc(Nc2nc(Nc3ccc(Oc4ccnc(C(=O)NC)c4)cc3)ncc2F)c1" — what was its cell viability?
83.9

Sample "O=C1CC(=O)c2c(Cl)c(Cl)c(Cl)c(Cl)c21" — what was its cell viability?
104

Sample "CC[C@H](Nc1ncnc2[nH]cnc12)c1nc2cccc(F)c2c(=O)n1-c1ccccc1" — what was its cell viability?
95.6

Sample "O=C(N[C@H]1CN2CCC1CC2)c1cc2cccc(Cl)c2s1" — what was its cell viability?
103

Sample "CC(C)(C#N)c1cc(Cn2cncn2)cc(C(C)(C)C#N)c1" — what was its cell viability?
104

Sample "CCCc1c2oc(C(=O)O)cc(=O)c2cc2c(=O)cc(C(=O)O)n(CC)c12" — what was its cell viability?
104

Sample C[N+](C)(C)CCOP(=O)(O)OC[C@H](O)CO [choline-alfoscerate] — what was its cell viability?
99.4

* * *

System: Vero E6
assay name: relative viability EC50 (midpoint between 100% and the lowest measured viability); higher = less toxic
particulars: 72 h
measured metric: relative viability EC50 (µM)
Lab book: enter the figure in µM, no units written.

CC(C)(C)c1ccc(S(=O)(=O)NCc2ccc(C(=O)Nc3cccnc3)cc2)cc1
3.2
O=C1c2c(O)ccc(O)c2C(=O)c2c(NCCNCCO)ccc(NCCNCCO)c21
0.35

The record that follows has no relative viability EC50 shown yet.
Missing value: relative viability EC50, Vero E6, entry "CC(C)(C)c1ccc(S(=O)(=O)/C=C/C#N)cc1" . Fill in?
2.35

* * *

Tested on: Calu-3
assay name: cell viability relative to DMSO; higher = less toxic
particulars: 72 h; 1 nM
measured metric: cell viability (%)
Lab book: enter the figure in %, no units written.

Cc1cc(CCCOc2c(C)cc(-c3noc(C(F)(F)F)n3)cc2C)on1
97.8
O=C(NNc1ccccc1)c1ccncc1
97.9
COc1cc2ncc(-c3ccccc3)nc2cc1OC
102
CC(C)(C)c1ccc(S(=O)(=O)/C=C/C#N)cc1
105
Cc1cccc(-c2[nH]c(C(C)(C)C)nc2-c2ccc3c(c2)OCO3)n1
102

The record that follows has no cell viability shown yet.
Sample Cc1ncc([N+](=O)[O-])n1CC(O)CCl (stereo not given) — what was its cell viability?
99.9

* * *

Tested on: Calu-3
assay name: cell viability relative to DMSO; higher = less toxic
particulars: 72 h; 1000 nM
measured metric: cell viability (%)
Lab book: enter the figure in %, no units written.

Example entries begin here.
C=CC[N+]1([C@H]2C[C@H]3[C@@H]4CC[C@H]5C[C@H](O)[C@@H](N6CCOCC6)C[C@]5(C)[C@H]4CC[C@]3(C)[C@H]2OC(C)=O)CCCC1 [ROCURONIUM BROMIDE]
94.9
Cc1ccc(C(=O)N(CCCN)[C@@H](c2oc3cc(Cl)ccc3c(=O)c2Cc2ccccc2)C(C)C)cc1
90
CN1CCC[C@@H]1Cc1c[nH]c2ccc(CCS(=O)(=O)c3ccccc3)cc12
95.2
Nc1nc(Cl)nc2c1ncn2[C@@H]1O[C@H](CO)[C@@H](O)[C@@H]1F
64.8
CC(Cc1cccc(C(F)(F)F)c1)NCCOC(=O)c1ccccc1 (stereo not drawn)
96.4
O=C(NC(=O)c1c(F)cccc1Cl)NC1c2ccccc2-c2ccccc21
91.7
CC(C)N(CCC(=O)c1ccc2ccccc2c1)Cc1ccccc1
97.5

The record that follows has no cell viability shown yet.
Sample "Cc1cc(C)cc(C(=O)N(C)[C@H](Cc2ccc(-c3ccccc3)cc2)C(=O)N[C@@H](Cc2c[nH]c3ccccc23)C(=O)O)c1" — what was its cell viability?
92.8

* * *

Test system: Caco-2
assay name: cell viability relative to DMSO; higher = less toxic
particulars: 72 h; 1 nM
The molecules listed here are annotated with their cell viability.
Lab book: enter the figure in %, no units written.

Example entries begin here.
Oc1c(Cl)cc(Cl)c2cccnc12
98.9
Cc1ccc(/N=C/N(C)/C=N/c2ccc(C)cc2C)c(C)c1
94.1
COc1ccccc1OCC(O)CNC(C)C (stereo not given)
97.7
COc1cc(C(=O)NCc2ccc(OCCN(C)C)cc2)cc(OC)c1OC [trimethobenzamide]
95.9

Sample "c1ccc(NCc2ccc(CNc3ccccn3)cc2)nc1" — what was its cell viability?
97.9

Sample "Cc1cc(C(=CNc2ccc(Cl)cc2)C(=O)Nc2ccc(Cl)cc2)on1" — what was its cell viability?
98.4

Sample "C1CCC(NC2CCCCC2)CC1" — what was its cell viability?
98.7

Sample "Cc1ccc2cc(-c3c(C)ccc(C(=O)c4c(-c5ccccc5)n(C)n(-c5ccccc5)c4=O)c3N)ccc2n1" — what was its cell viability?
92.6

Sample "O=C1CC(=O)c2c(Cl)c(Cl)c(Cl)c(Cl)c21" — what was its cell viability?
120

Sample "C[C@](N)(Cc1ccc(O)cc1)C(=O)O" — what was its cell viability?
97.7

* * *

System: Caco-2
assay name: cell viability relative to DMSO; higher = less toxic
particulars: 72 h; 10000 nM
Structures can show the parent of a compound that is named as a salt.
measured metric: cell viability (%)
Lab book: enter the figure in %, no units written.

Sample "CCOC(=O)[C@H](Cc1ccccc1)NC(=O)c1cc(Cl)c(OCCN2CCN(C)CC2)c(Cl)c1O" — what was its cell viability?
76.1

Sample "O=C1CC(=O)c2c(Cl)c(Cl)c(Cl)c(Cl)c21" — what was its cell viability?
95.6

Sample CNCCc1cnc[nH]1 [N-alpha-methylhistamine-dihydrochloride] — what was its cell viability?
102

Sample "CCCCOc1ccc(-c2cncc(C(=O)NCc3cccnc3N3CCOCC3)c2)cc1Cl" — what was its cell viability?
74.8

Sample "COc1ccc2nc3[nH]nc(C)c3c(NCCOCCO)c2c1" — what was its cell viability?
96.8

Sample "CC[C@H]1OC(=O)[C@H](C)C(=O)[C@H](C)[C@@H](O[C@@H]2O[C@H](C)C[C@H](N(C)C)[C@H]2O)[C@](C)(OC)C[C@@H](C)C(=O)[C@H](C)[C@H]2N(CCCCn3cnc(-c4cccnc4)c3)C(=O)O[C@]12C" — what was its cell viability?
89

Sample "CC(C)C(=O)OC[C@H]1O[C@@H](n2ccc(N)nc2=O)[C@](C)(F)[C@@H]1OC(=O)C(C)C" — what was its cell viability?
102

Sample CC(CCc1ccc(O)cc1)NCC(O)c1ccc(O)cc1 (stereo not drawn) — what was its cell viability?
114

Sample "CCCc1nn(C)c2c(=O)[nH]c(-c3cc(S(=O)(=O)N4CCN(C)CC4)ccc3OCC)nc12" — what was its cell viability?
93.9

Sample O=C(O[C@@H]1Cc2c(O)cc(O)cc2O[C@@H]1c1ccc(O)c(O)c1)c1cc(O)c(O)c(O)c1 [epicatechin-gallate-(-)] — what was its cell viability?
100

Sample O=C(C[S+]([O-])Cc1ccco1)NC/C=C\COc1cc(CN2CCCCC2)ccn1 (stereo not drawn) — what was its cell viability?
90.6

Sample "Cc1ncc(C[n+]2csc(CCO)c2C)c(N)n1" — what was its cell viability?
102

* * *

System: Caco-2
assay name: cell viability relative to DMSO; higher = less toxic
particulars: 72 h; 10000 nM
measured metric: cell viability (%)
Lab book: enter the figure in %, no units written.

COc1ccc(C2C(=O)c3ccccc3C2=O)cc1 [anisindione]
95.3
COc1ccc(Cl)cc1[C@]1(F)C(=O)Nc2cc(C(F)(F)F)ccc21 [flindokalner]
88.7
CCN(CC)C(=O)N[C@H]1C=C2c3cccc4[nH]cc(c34)C[C@H]2N(C)C1 [lisuride]
100
C=CC(=O)Nc1cccc(Nc2nc(Nc3ccc(Oc4ccnc(C(=O)NC)c4)cc3)ncc2F)c1 [CNX-774]
30
Cc1cc(CCCOc2c(C)cc(-c3noc(C(F)(F)F)n3)cc2C)on1 [pleconaril]
105
NCCc1c[nH]c2ccc(O)cc12 [serotonin]
89.5

Sample CC(C(=O)O)c1ccc2c(c1)CC(=O)c1ccccc1S2 (centres undefined) [zaltoprofen] — what was its cell viability?
101

Sample Cc1cccc(Cc2c[nH]cn2)c1C [detomidine] — what was its cell viability?
96.1

Sample O=C(NC(=O)c1c(F)cccc1Cl)NC1c2ccccc2-c2ccccc21 [TMN-355] — what was its cell viability?
104
